- Test system: RAW264.7
- protocol: Inhibition of LPS-induced TNFalpha production in mouse RAW264.7 cells 10 uM
- Assay type: functional
inhibition (INH) reference
Respond numerically; units are % and should not be typed.

Recorded results for 5 molecules are shown here.
recordSmiles: CC(C)(C)c1ccc2[nH]cc(C(=O)Nc3ccc(C(C)(C)C)c(N)c3)c(=O)c2c1
targetSystem: RAW264.7
valueType: inhibition (INH)
measuredValue: 71.3

recordSmiles: CC(C)(C)c1ccc2[nH]cc(C(=O)Nc3ccc(C(C)(C)C)c([N+](=O)[O-])c3)c(=O)c2c1
targetSystem: RAW264.7
valueType: inhibition (INH)
measuredValue: 47.7

recordSmiles: CC(C)(C)c1ccc(NC(=O)c2cn(CCN3CCOCC3)c3ccc(C(C)(C)C)cc3c2=O)cc1
targetSystem: RAW264.7
valueType: inhibition (INH)
measuredValue: 69.5

recordSmiles: CC(C)(C)c1ccc2[nH]cc(C(=O)Nc3cc(O)c(C(C)(C)C)cc3C(C)(C)C)c(=O)c2c1
targetSystem: RAW264.7
valueType: inhibition (INH)
measuredValue: 45.7

recordSmiles: COc1cc(NC(=O)c2c[nH]c3ccc(C(C)(C)C)cc3c2=O)cc(OC)c1OC
targetSystem: RAW264.7
valueType: inhibition (INH)
measuredValue: 70.8

get_value(item= "CC(C)(C)c1cc(C(C)(C)C)c(NC(=O)c2c[nH]c3ccccc3c2=O)cc1O" , readout=inhibition (INH)) returns 63.2

The value of inhibition (INH) measured for the molecule "CC(C)(C)c1ccc(NC(=O)c2c[nH]c3ccc(C(C)(C)C)cc3c2=O)cc1" turned out to be 61.6
